Where do these numbers come from? They come from patent US3988450A.

# MEASUREMENT_NOTES: Serum concentrations in mice after sub-cutaneous injection, microbiological assay
# Assay type: in vivo
# MEASUREMENT_SETUP: mouse, sc, 50 mg/kg sub-cutaneous, 10 min, average, read-out: Serum concentrations at time after dosing
READOUT_KIND: concentration at 10 min (µg/mL)
Supply the numeric figure in µg/mL, leaving out any unit text.

[
  {
    "MOLECULE": "N[C@@H](C(=O)N[C@@H]1C(=O)N2C(C(=O)O)=C(Cc3ccccc3C(=O)O)CS[C@H]12)c1ccccc1 [o-carboxy isomer]",
    "UNIT_DESCRIPTOR": "µg/mL",
    "RESULT_VALUE": 63
  },
  {
    "MOLECULE": "Cc1nnc(SCC2=C(C(=O)O)N3C(=O)[C@@H](NC(=O)Cn4cnnn4)[C@H]3SC2)s1 [Cefazolin, reference compound]",
    "UNIT_DESCRIPTOR": "µg/mL",
    "RESULT_VALUE": 45
  }
]

Let's switch to this molecule now.
# query: concentration at 10 min of entry N[C@@H](C(=O)N[C@@H]1C(=O)N2C(C(=O)O)=C(Cc3ccc(C(=O)O)cc3)CS[C@H]12)c1ccccc1 [p-carboxy isomer]
75
